Tested on: HCT-116 colon
Test: NCI tumour cell line growth inhibition, 48 h
The entries below are paired with their reported TGI.
Test Readout: TGI (nM)

CCc1c(Cl)nc(Cl)nc1Cl :: 440
Cc1cccc2c(N)c3cccc(C(=O)NCCN(C)C)c3nc12 :: 2380

###

The molecules listed here are annotated with their TGI.
Test system: UACC-257 melanoma
Experiment: NCI tumour cell line growth inhibition, 48 h
Test Readout: TGI

CC1(C)CN=C(Nc2ccc(Cl)cc2)S1 :: > 100 µM
C#COc1cccc(Nc2ncnc3ncc(NC(=O)CCl)cc23)c1 :: > 62.5 µM
Clc1ccc(OC2CCO2)cc1Cl (stereo not drawn) :: > 100 µM

###

TGI for assorted compounds
System: HS 578T breast
Experiment: NCI tumour cell line growth inhibition, 48 h
Test Readout: TGI (µM)

CC[CH2][Sn]([Cl])([Cl])[CH2]CC :: 28.4
COc1cc([C@@H]2c3cc4c(cc3[C@@H](O[C@@H]3O[C@@H]5CO[C@@H](c6cccs6)O[C@H]5[C@H](O)[C@H]3O)[C@H]3COC(=O)[C@H]23)OCO4)cc(OC)c1O :: 15.3
COc1ccc2c(c1)nc1n2C(c2c(F)cccc2Cl)SC1 (centres undefined) :: 6.4
Oc1cc(O)c2c(=S)cc(-c3ccc(Cl)cc3)oc2c1 :: 40.3
CC(=O)O[C@H]1CC[C@@]2(C)C(=CC[C@@H]3[C@@H]2CC[C@]2(C)C(=N/O)/C(=C/c4ccc([N+](=O)[O-])cc4)C[C@@H]32)C1 :: 8.46

###

Catalogue of TGI readings, one per entry.
Test system: M14 melanoma
Assay: NCI tumour cell line growth inhibition, 48 h
Test Readout: TGI (µM)

CCOc1ccc2c(ccc(/C=C\c3cc(C)c4cccnc4c3O)[n+]2C)c1 :: 18.7
COC(=O)[C@@]1(C)CC[C@]2(C)CC[C@]3(C)C4=CC=C5C(=CC(=O)C(O)=C5C)[C@]4(C)CC[C@@]3(C)[C@@H]2C1 :: 0.49
COC(=O)C(Cc1ccccc1I)C1=CCC2(CC1)OCCO2 (stereo not given) :: 50.4
Oc1cc(O)c2c(=S)cc(-c3ccc(Cl)cc3)oc2c1 :: 14.8
Cc1c(CCCl)c(N=[N+]=[N-])n2c(nc3ccccc32)c1C#N :: 2.77
COc1cc2c(cc1OC)C1(c3ccccc3)CN(C2)Cc2cc(OC)c(OC)cc21 :: 59.6
Cc1cc(-c2nc(-c3ccc(OC(F)(F)F)cc3)no2)nn1Cc1ccnc(N2CCN(C3CC3)CC2)c1 :: 20.4

###

Tested on: CCRF-CEM leukemia
Assay: NCI tumour cell line growth inhibition, 48 h
# reported TGI; entries follow
Test Readout: TGI

CCn1c(=O)ccc2ccc(N(CCO)CCO)nc21 :: > 100 µM
O=C(NNC(=O)c1ccncc1)c1ccncc1 :: > 100 µM
C#CCOC(=O)C(N)CSSCC(N)C(=O)O (stereo not drawn) :: > 100 µM
COc1ccc(Cc2cnc(NC(=O)c3sc4ccccc4c3Cl)s2)cc1 :: > 100 µM
COc1ccccc1S(=O)Nc1ccccc1 (stereo not drawn) :: > 100 µM
COC(=O)NN=C(c1ccc(Cl)cc1)c1ccc(Cl)cc1 :: > 100 µM
O=C1CC(=O)c2c(Cl)sc(Cl)c21 :: > 100 µM
[N-]=[N+]=Nc1c([N+](=O)[O-])c(Cl)nc2ccccc12 :: 1.44 µM
CCOC(=O)C1=C(C)NC2SC(=O)/C(=C\c3ccccc3)N2C1c1ccccc1 (stereo not drawn) :: > 100 µM
COC(=O)C1CCC(Nc2cccc(C(F)(F)F)c2)=N1 (stereo not drawn) :: > 100 µM
COc1ccc(C2=NN(c3ccccc3)C(c3cc4cc(Br)ccc4nc3Cl)C2)cc1 (stereo not drawn) :: > 25 µM
CC1=CCC[C@@H]2[C@@](C)(Cc3cc(O)ccc3O)[C@H](C)CC[C@@]12C :: 15.1 µM
COC(=O)c1ccc([N+](=O)[O-])c(O)c1 :: > 100 µM
COc1ccc(-c2nn(-c3cccc(NC(=O)Nc4cc(C(F)(F)F)cc(C(F)(F)F)c4)c3)cc2-c2ccncc2)cc1Cl :: 3.11 µM
Cc1cc(-c2nc(-c3ccc(OC(F)(F)F)cc3)no2)nn1Cc1ccnc(N2CCN(C3CC3)CC2)c1 :: > 100 µM
N#Cc1c(NC(=O)CN2CCOCC2)sc2c1CCCC2 :: > 25 µM
CNC(C)C(=O)N[C@H](C(=O)N1CCC[C@@H]1CN(CCc1ccccc1)C(=O)C(F)(F)F)[C@H](C)OCC#CC#CCO[C@H](C)[C@H](NC(=O)[C@H](C)NC)C(=O)N1CCC[C@H]1CN(CCc1ccccc1)C(=O)C(F)(F)F (stereo partly drawn) :: 2.54 µM
CNc1ccc(-c2cc(=O)oc3ccc(Cl)cc23)cc1 :: > 100 µM
Nc1nc(NNc2ccc(Cl)c(Cl)c2)cc(=O)[nH]1 :: > 100 µM
OC(COc1cccc2ccccc12)CN1CCN(c2ccccc2)CC1 (stereo not drawn) :: 53.2 µM
CC1(C)CC2C=C(C=O)C3(C=O)CC3(C)C2C1 (stereo not drawn) :: 1.15 µM
CC(C)=CCc1c(C)cc2cc3c(c(O)c2c1O)C(O)=CC(=O)C3(CC=C(C)C)C/C=C(\C)CO (stereo not drawn) :: 60.1 µM
COc1cc2c(cc1OC)C1(c3ccccc3)CN(C2)Cc2cc(OC)c(OC)cc21 :: 61.4 µM
O=C(CCc1ccc(O)c(O)c1)NCCc1cc(OCc2ccccc2)cc(OCc2ccccc2)c1 :: 11.5 µM
COc1ccc(/C=C/c2cc(N3CCOCC3)c3cc(F)c(F)cc3n2)cc1OC :: 10.2 µM
CCCN(CCC)CCCNC(=O)c1cc2c(-c3ccc(OC)c(OC)c3)nn(C)c2s1 :: 65.6 µM
C=C1CCC2C3(C)COC(c4ccc(SC)cc4)OC3CCC2(C)C1C/C=C1/C(=O)OCC1O (stereo not drawn) :: 13.7 µM
CC(C)OP(=O)(OC(C)C)/C(=N/N)NNc1ccc([N+](=O)[O-])cc1 :: > 100 µM
O=C(Nc1ccccc1Br)c1cccc([N+](=O)[O-])c1O :: > 40.3 µM
CC(=O)O[C@H]1CC[C@@]2(C)C(=CC[C@@H]3[C@@H]2CC[C@]2(C)C(=N/O)/C(=C/c4ccc([N+](=O)[O-])cc4)C[C@@H]32)C1 :: > 100 µM
CN1C2C=C(c3ccccc3)CC1CC2 (stereo not drawn) :: > 100 µM
CC1=C([Se]CC(OC(=O)[C@@H](CO)NC(=O)OC(C)(C)C)C(=O)NC(C)(C)C)C(=O)c2ccccc2C1=O (stereo partly drawn) :: > 100 µM
CN(C)C=Nc1cccc2cnccc12 :: > 100 µM
O=C(O)CCCCn1cnc2c(=S)nc[nH]c21 :: > 100 µM
CC(C)C(=O)/C=C/c1ccc(Cl)cc1 :: 51.7 µM
CC1(C)C2CCC3(OCCO3)C1C1OC12 (stereo not drawn) :: > 100 µM
CN(C)CCCNc1nnc(NCCCN(C)C)c2c(=O)c3sccc3[nH]c12 :: > 50.2 µM
COC(=O)Nc1nc2cc3c(cc2s1)OCCO3 :: > 50 µM
N#CC(C#N)=CSc1ccccc1 :: > 100 µM
CCN(CC)C(=S)SC1CCOP(=O)(N(CCCl)CCCl)N1C (stereo not drawn) :: 43.1 µM
COc1ccc(C(C2C(=O)N(C)C(=O)N(C)C2=O)C(F)(F)C(=O)N(C)C)cc1 (stereo not drawn) :: > 100 µM
CC(=O)NCCc1c[nH]c2ccc(Cl)cc12 :: > 100 µM
COc1c2c(cc3c(CCc4ccccc4)cc(=O)oc13)CCC(C)(C)O2 :: > 100 µM

Values compiled from PubChem BioAssay (NCI).
